Test system: Brain
Test: AUC ( 0 to 8 hrs) in Sprague-Dawley rat brain at 3 mg/kg, po
Type: ADME, organism-based
Set-up: time < 8 hr, dose 3 mg/kg, route oral
Details: in vivo
AUC values, listed per item

{"columns": ["compound", "testedSystem", "AUC"],
 "data": [
  ["CC[C@H](NC(=O)c1c(N)c(-c2ccc(F)cc2)nc2ccccc12)c1ccccc1", "Brain", "880 ng·h/g"],
  ["CC[C@H](NC(=O)c1c(N)c(-c2cccc(F)c2)nc2ccccc12)c1ccccc1", "Brain", "1388 ng·h/g"],
  ["CC[C@H](NC(=O)c1c(N)c(-c2ccccc2)nc2ccccc12)c1ccccc1", "Brain", "577 ng·h/g"],
  ["CC[C@H](NC(=O)c1c(C)c(-c2ccccc2)nc2ccccc12)c1ccccc1 [SB-222200]", "Brain", "507 ng·h/g"]
]}

====

Test: Distribution coefficient, log D at pH 7.4
Assay type: physicochemical
Details: octanol/water

{"columns": ["smilesString", "logD"],
 "data": [
  ["CN(Cc1c(-c2ccccc2)nc2ccccc2c1C(=O)N[C@H](c1cccc(F)c1)C1CC1)S(C)(=O)=O", 3.2]
]}

====

Here the recorded log10 AUC is given for each entry.
System: Brain
Test: AUC ( 0 to t ) in Sprague-Dawley rat brain at 3 mg/kg, po
Assay type: ADME, organism-based
Set-up: dose 3 mg/kg, route oral
Conditions: in vivo
measurementType: log10 AUC (log10 of the value in ng·h/g)

{"columns": ["smilesString", "log10 AUC"],
 "data": [
  ["Nc1c(-c2ccccc2)nc2ccccc2c1C(=O)N[C@H](c1cccc(F)c1)C1CC1", 3.12],
  ["Nc1c(-c2cccc(F)c2)nc2ccccc2c1C(=O)N[C@H](c1ccccc1)C1CC1", 3.40],
  ["Cc1c(-c2cccc(F)c2)nc2ccccc2c1C(=O)N[C@H](c1ccccc1)C1CC1", 2.66],
  ["Nc1c(-c2cccc(F)c2)nc2ccccc2c1C(=O)N[C@H](c1cccc(F)c1)C1CC1", 3.40],
  ["CN(Cc1c(-c2ccccc2)nc2ccccc2c1C(=O)N[C@H](c1cccc(F)c1)C1CC1)S(C)(=O)=O", 2.24]
]}

====

Assay: Blood clearance in Sprague-Dawley rat at 1 mg/kg, iv
Assay type: ADME, organism-based
Set-up: dose 1 mg/kg, route intravenous
Conditions: whole blood
measurementType: clearance (mL/min/kg)

{"columns": ["smilesString", "reported"],
 "data": [
  ["CC[C@H](NC(=O)c1c(N)c(-c2ccc(F)cc2)nc2ccccc12)c1ccccc1", 30],
  ["CC[C@H](NC(=O)c1c(C)c(-c2ccccc2)nc2ccccc12)c1ccccc1", 62],
  ["CC[C@H](NC(=O)c1c(N)c(-c2cccc(F)c2)nc2ccccc12)c1ccccc1", 28],
  ["CC[C@H](NC(=O)c1c(N)c(-c2ccccc2)nc2ccccc12)c1ccccc1", 27]
]}

====

Assay: Drug level in gerbil brain at 30 mg/kg, po
Format: ADME, organism-based
Design: dose 30 mg/kg, route oral
Settings: gerbillinae, in vivo, read-out: Drug uptake
measurementType: concentration (nM)

{"columns": ["smilesString", "reported"],
 "data": [
  ["CC[C@H](NC(=O)c1c(O)c(-c2ccccc2)nc2ccccc12)c1ccccc1", 110],
  ["CC(=O)N(C)C1(c2ccccc2)CCN(CCC[C@]2(c3ccc(Cl)c(Cl)c3)CCCN(C(=O)c3ccccc3)C2)CC1", 16]
]}

FYI, the data here is from ChEMBL document CHEMBL1143318.
